Test system: T1, human CD98, endogenously expressed on Molt-4 human acute lymphoblastic leukemia cells (human)
T1 chain: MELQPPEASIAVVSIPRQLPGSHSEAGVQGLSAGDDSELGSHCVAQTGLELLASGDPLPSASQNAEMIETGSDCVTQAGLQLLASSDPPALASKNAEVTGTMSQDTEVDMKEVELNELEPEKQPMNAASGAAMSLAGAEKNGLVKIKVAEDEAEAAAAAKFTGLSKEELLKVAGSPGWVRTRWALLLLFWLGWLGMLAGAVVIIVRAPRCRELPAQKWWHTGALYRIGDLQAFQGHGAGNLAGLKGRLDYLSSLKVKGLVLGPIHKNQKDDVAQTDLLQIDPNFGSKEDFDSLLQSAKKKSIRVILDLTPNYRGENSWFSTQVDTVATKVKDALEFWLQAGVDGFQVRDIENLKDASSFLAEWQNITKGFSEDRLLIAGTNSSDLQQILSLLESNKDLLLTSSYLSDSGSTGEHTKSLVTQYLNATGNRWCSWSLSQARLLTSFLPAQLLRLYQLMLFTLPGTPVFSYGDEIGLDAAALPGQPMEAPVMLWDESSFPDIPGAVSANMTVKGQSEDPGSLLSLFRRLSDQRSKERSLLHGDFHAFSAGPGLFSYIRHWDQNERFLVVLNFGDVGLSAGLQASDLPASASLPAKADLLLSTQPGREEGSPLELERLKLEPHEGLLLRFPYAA
Protocol: cell-based or functional assay
Measured parameter: Molt4 IC50

CD98 (CL-huAb108)-AAA (antibody, human IgG1, kappa, L234A L235A, V domains shown, synthon AAA on reduced interchain cysteines (sites not given)) VH: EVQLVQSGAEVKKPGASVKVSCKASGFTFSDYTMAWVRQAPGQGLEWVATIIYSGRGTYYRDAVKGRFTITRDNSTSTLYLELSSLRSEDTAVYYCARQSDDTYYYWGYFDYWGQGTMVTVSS VL: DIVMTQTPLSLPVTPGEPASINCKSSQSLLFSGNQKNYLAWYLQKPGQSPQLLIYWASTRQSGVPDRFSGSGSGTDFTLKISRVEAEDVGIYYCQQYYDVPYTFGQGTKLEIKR	0.18 nM
CD98 (CL-huAb110)-AAD (antibody, human IgG1, kappa, L234A L235A, V domains shown, synthon AAD on reduced interchain cysteines (sites not given)) VH: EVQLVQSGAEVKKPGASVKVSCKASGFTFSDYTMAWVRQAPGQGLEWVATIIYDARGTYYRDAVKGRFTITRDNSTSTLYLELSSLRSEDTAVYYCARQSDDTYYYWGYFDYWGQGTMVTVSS VL: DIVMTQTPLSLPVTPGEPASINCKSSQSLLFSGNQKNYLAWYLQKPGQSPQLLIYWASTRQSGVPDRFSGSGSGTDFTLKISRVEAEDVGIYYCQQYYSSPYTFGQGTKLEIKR	0.074 nM
CD98 (CL-huAb104)-WD (antibody, human IgG1, kappa, L234A L235A, V domains shown, synthon WD on reduced interchain cysteines (sites not given)) VH: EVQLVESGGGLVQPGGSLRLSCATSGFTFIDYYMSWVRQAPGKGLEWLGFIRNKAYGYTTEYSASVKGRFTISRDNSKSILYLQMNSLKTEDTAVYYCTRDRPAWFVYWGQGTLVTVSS VL: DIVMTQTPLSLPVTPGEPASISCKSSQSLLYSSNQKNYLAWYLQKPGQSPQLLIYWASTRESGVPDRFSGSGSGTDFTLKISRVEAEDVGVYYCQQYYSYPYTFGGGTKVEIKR	0.067 nM
CD98 (CL-huAb102)-ZZ (antibody, human IgG1, kappa, L234A L235A, V domains shown, synthon ZZ on reduced interchain cysteines (sites not given)) VH: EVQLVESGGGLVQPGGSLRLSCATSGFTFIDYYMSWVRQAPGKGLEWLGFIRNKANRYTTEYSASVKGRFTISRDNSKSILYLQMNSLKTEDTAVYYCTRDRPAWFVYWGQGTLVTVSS VL: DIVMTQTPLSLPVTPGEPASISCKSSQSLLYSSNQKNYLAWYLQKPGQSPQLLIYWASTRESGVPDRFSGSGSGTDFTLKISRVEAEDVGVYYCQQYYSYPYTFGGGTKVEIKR	0.072 nM

Consider the additional binder presented here.
Endpoint output: Molt4 IC50 of CD98 (CL-huAb104)-CZ (antibody, human IgG1, kappa, L234A L235A, V domains shown, synthon CZ on reduced interchain cysteines (sites not given)) VH: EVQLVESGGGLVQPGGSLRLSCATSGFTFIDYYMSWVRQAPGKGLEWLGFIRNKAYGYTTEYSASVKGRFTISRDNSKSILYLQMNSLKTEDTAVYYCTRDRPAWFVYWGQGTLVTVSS VL: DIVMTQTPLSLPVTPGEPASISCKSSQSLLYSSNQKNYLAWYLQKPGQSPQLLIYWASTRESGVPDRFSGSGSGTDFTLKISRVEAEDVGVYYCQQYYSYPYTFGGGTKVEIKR . Value?
0.023 nM
